# credit: PubChem BioAssay

Tested on: Lefty1
test_details: Lefty1 binders on small-molecule microarrays, primary screen, biochemical, small-molecule microarray, 635/667 nm fluorescence (AID 1139)
cond: small-molecule microarray binding, fluorescence 635/667; higher = more signal
metric: composite z-score
Give the figure only, with no unit attached.

# count of solved cases: 2
smiles_representation=O=C1O[C@H](c2ccccc2)[C@H](c2ccccc2)N2[C@H]1[C@@H](C(=O)Nc1nc3ccccc3s1)[C@]1(C(=O)Nc3ccccc31)[C@H]2c1ccc(O)cc1 target_entity=Lefty1 experimental_value=1.08
smiles_representation=COCCOC(=O)N1C(=O)[C@@]2(c3cc(C#CCNC(N)=O)ccc31)[C@H](c1ccccc1OCCO)N1[C@H](c3ccccc3)[C@H](c3ccccc3)OC(=O)[C@H]1[C@@H]2C(N)=O target_entity=Lefty1 experimental_value=0.782

Please look at the following molecule next.
Fill in: composite z-score of CCCN1C(=O)[C@]2(COC(c3ccc(OCCCO)cc3)=N2)Cc2ccccc21 is ___
-0.222
